- System under test: RXRβ (Mus musculus)
- Construct: expressed in transfected cells; host or cells: CV1
- Procedure details: Holoreceptor transactivation assay, RXRβ
- Type: cell-based
- Applied conditions: CV-1; CV1 cells; relative to all trans retinoic acid; read-out: Transactivation Assay Efficacy (% of RA activity), RXRβ
Readout label: Emax (%)

[P] CC1(C)CCC(C)(C)c2cc(S(=O)(=O)c3ccc(C(=O)O)cc3)ccc21
[Q] Cc1cc2c(cc1Sc1ncc(C(=O)O)s1)C(C)(C)CCC2(C)C
Prompt: Dear colleague, could you let me know whether P or Q has the lower recorded Emax? Thanks. Lab log: write the label of the selected item as the result.
Completion: P

###

Target chain: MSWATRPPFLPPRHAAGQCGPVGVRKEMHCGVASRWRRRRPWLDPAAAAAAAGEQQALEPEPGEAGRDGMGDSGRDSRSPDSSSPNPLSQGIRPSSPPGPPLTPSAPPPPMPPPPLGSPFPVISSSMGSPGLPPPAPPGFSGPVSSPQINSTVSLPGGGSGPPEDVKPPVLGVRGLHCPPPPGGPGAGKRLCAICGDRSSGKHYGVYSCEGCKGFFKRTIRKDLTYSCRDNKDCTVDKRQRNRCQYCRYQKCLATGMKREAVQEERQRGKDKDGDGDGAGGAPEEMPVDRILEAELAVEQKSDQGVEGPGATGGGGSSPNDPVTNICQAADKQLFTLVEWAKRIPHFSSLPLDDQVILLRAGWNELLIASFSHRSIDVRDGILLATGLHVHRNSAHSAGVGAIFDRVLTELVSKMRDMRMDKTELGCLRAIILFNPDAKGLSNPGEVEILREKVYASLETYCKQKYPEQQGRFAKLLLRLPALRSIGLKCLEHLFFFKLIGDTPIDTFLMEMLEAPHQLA
Readout label: Kd (nM)

[P] Cc1cc2c(cc1Sc1ccc(C(=O)O)cc1)C(C)(C)CCC2(C)C
[Q] Cc1cc2c(cc1Sc1ccc(C(=O)O)cn1)C(C)(C)CCC2(C)C
Prompt: Compare P and Q by numeric Kd and name the larger one. Lab log: write the label of the selected item as the result.
Completion: P
(P: 302 nM, Q: 57 nM)

###

Sequence of the target: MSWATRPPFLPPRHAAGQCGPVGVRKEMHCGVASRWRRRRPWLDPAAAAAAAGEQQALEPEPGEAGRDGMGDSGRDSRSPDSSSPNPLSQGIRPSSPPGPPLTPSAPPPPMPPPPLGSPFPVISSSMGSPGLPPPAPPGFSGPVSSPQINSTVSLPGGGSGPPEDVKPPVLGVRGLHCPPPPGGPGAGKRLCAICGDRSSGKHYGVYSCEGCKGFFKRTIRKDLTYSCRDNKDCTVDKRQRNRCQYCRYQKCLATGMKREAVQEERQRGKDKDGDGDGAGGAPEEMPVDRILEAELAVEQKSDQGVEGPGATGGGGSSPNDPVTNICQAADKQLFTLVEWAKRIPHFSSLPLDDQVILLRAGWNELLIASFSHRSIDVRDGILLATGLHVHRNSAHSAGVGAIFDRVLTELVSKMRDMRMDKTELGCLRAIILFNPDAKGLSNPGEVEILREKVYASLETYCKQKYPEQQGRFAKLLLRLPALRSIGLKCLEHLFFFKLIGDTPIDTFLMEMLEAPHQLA
pKd: −log10 of the molar value.
Readout label: pKd

CC1(C)CCC(C)(C)c2cc(S(=O)(=O)c3ccc(C(=O)O)cc3)ccc21 : < 6.00
CC1(C)CCC(C)(C)c2cc(Sc3ccc(C(=O)O)cc3)ccc21 : < 6.00

Kindly review the next molecule as well.
Prompt: Give the measured pKd for Cc1cc2c(cc1Sc1ncc(C(=O)O)s1)C(C)(C)CCC2(C)C
Completion: < 6.00
